Value source: patent US9765105B2

Parameter: MIC values, Pasteurella multocida CVCC399. Scope: all listed entries.
System: Pasteurella multocida CVCC399
PROCEDURE_DETAILS: in vitro susceptibility, MIC by mini broth dilution
Assay type: cell-based
REPORTED_CONDITIONS: strain CVCC399
QUANTITY_KIND: MIC values, Pasteurella multocida CVCC399 (ug/mi)

SMI	UNIT_ABBREVIATION	DATA_VALUE
CCCN1C[C@H](C)[C@@H](O)[C@](C)(O)[C@@H](CC)OC(=O)[C@H](C)[C@@H](O[C@H]2C[C@@](C)(OC)[C@](O)(CNc3cc(Cl)nc(Cl)n3)[C@H](C)O2)[C@H](C)[C@@H](O[C@@H]2O[C@H](C)C[C@H](N(C)C)[C@H]2O)[C@](C)(O)C[C@H]1C	ug/mi	8
CCCN1C[C@H](C)[C@@H](O)[C@](C)(O)[C@@H](CC)OC(=O)[C@H](C)[C@@H](O[C@H]2C[C@@](C)(OC)[C@](O)(CNOCc3ccccc3)[C@H](C)O2)[C@H](C)[C@@H](O[C@@H]2O[C@H](C)C[C@H](N(C)C)[C@H]2O)[C@](C)(O)C[C@H]1C	ug/mi	4
